measured-on: HLA-DP DPA1*02:01/DPB1*14:01 (Homo sapiens, UniProt P04440+P20036, A65V/A84D/A85E/E86D/F191V/F38H/G113D/G114E/G40L/I94L/K142R/L158P/L37V/M105V/M116V/M62Q/P115A/Q81R/R125K/T114A/T199I/T259P)
Sequence (P20036 29-260 A42M/M62Q/Q81R/T114A/K142R/L158P/F191V/T259P): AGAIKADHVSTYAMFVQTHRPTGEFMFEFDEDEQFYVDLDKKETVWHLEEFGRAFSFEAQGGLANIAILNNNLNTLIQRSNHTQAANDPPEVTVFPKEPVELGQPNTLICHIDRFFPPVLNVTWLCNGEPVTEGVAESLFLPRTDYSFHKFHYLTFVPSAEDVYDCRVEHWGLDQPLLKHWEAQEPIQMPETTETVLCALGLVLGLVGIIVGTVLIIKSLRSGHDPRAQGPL
Sequence (P04440 30-258 with the stated changes): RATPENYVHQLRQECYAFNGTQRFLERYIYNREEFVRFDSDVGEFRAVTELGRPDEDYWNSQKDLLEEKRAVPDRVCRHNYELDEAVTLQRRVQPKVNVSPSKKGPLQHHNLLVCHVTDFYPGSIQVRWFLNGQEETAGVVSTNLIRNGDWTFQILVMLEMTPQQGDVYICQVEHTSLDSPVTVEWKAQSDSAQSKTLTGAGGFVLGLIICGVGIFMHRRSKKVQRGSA
experiment: biochemical
Format: binding
settings: read-out: Binding capacity/IC50 (nM) DPA1*02:01 DPB1*14:01
quantity: IC50 (nM)

>>> observed_measurement("CC[C@H](C)[C@H](NC(=O)[C@H](Cc1ccc(O)cc1)NC(=O)CNC(=O)[C@H](CO)NC(=O)[C@H](C)NC(=O)[C@@H](NC(=O)[C@H](Cc1c[nH]cn1)NC(=O)[C@@H](NC(=O)[C@H](C)NC(=O)[C@@H](NC(=O)[C@H](CC(C)C)NC(=O)[C@@H](NC(=O)[C@@H](NC(=O)[C@H](CCCCN)NC(=O)CNC(=O)[C@@H](N)CCC(=O)O)[C@@H](C)CC)[C@@H](C)CC)C(C)C)C(C)C)C(C)C)C(=O)N[C@@H](CCC(=O)O)C(N)=O")
1370
